assay: Absorption and fluorescence maxima with and without CB7; format: physicochemical; parameters: unit not given here; conditions: with 1 mM CB7
quantity: λem max

{"compound": "Cc1cc(=O)oc2c3c4c(cc12)CCCN4CCC3 [Coumarin-102, coumarin 102]", "obs.value": 476.0}
{"compound": "CCN1C(=CC=CC2=[N+](CC)c3ccc(S(=O)(=O)[O-])cc3C2(C)C)C(C)(C)c2cc(S(=O)(=O)O)ccc21 [Cyanine 3, cyanine 3]", "obs.value": 571.0}
{"compound": "CN(C)c1ccc2c(-c3ccccc3C(=O)[O-])c3ccc(N(C)C)cc3[o+]c2c1 [Tetramethylrhodamine, tetramethylrhodamine]", "obs.value": 582.0}
{"compound": "CCN1C(=CC=CC=CC2=[N+](CC)c3ccc(S(=O)(=O)[O-])cc3C2(C)C)C(C)(C)c2cc(S(=O)(=O)O)ccc21 [Cyanine 5, cyanine 5]", "obs.value": 657.0}
{"compound": "CCN=c1cc2oc3cc(NCC)c(C)cc3c(-c3ccccc3C(=O)OCC)c-2cc1C.Cl [Rhodamine 6G, rhodamine 6G]", "obs.value": 555.0}
